From: PubChem BioAssay

Tested on: Inhibin beta A chain (activin A)
Assay: INHBA (activin A) binders on microarrays, primary screen, biochemical, small-molecule microarray, 635 nm fluorescence scan (AID 1107);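 further: mouse activin A protein probed at 4.33 µg/mL on printed slides; score merges bound-protein fluorescence near 667 nm with spot signal-to-noise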
Details: small-molecule microarray binding, higher = more signal
measured.quantity: composite z-score
One number for each entry.

{"structure.smiles": "NCCCCCCNC(=O)[C@@H]1C[C@@H]2C(=O)N[C@@H](Cc3ccccc3)C(=O)N2[C@@H]1c1ccc(O)cc1", "composite z-score": 1.15}
{"structure.smiles": "O=C1c2ccccc2C(=O)c2cc([C@H]3Oc4ccccc4S(=O)(=O)N4CCC[C@@H]34)ccc21", "composite z-score": 1.09}
{"structure.smiles": "COCCCNC(=O)[C@@]1(CCS(=O)(=O)c2ccccc2)N=C(c2ccc(OCCCO)cc2)O[C@H]1c1ccccc1CN=[N+]=[N-]", "composite z-score": 1.22}
{"structure.smiles": "COc1ccc([Si](C)(C)[C@H]2[C@H](CC(=O)N3Cc4ccccc4C[C@H]3CO)O[C@@]3(C(=O)N(Cc4cccc(N5C(=O)COc6ccccc65)c4)c4ccccc43)[C@@H]2C)cc1", "composite z-score": 1.23}
{"structure.smiles": "COc1ccc(C#Cc2ccc3c(c2)[C@]2(C(=O)N3)[C@H](c3ccc(O)cc3)N3[C@H](c4ccccc4)[C@H](c4ccccc4)OC(=O)[C@H]3[C@@H]2C(N)=O)cc1", "composite z-score": 0.227}

Proceeding to the next molecule to report its composite z-score.
Ask: Quick one: composite z-score for O=C(NC1CC1)[C@@H]1c2ccccc2C(=O)N(Cc2ccccc2C(F)(F)F)[C@H]1c1ccc(CO)cc1 ?
Result: 0.708
